// provenance: PubChem BioAssay (NCI)

Measured growth values are reported for all entries that follow.
System: MOLT-4 leukemia
Assay: NCI-60 one-dose screen, 48 h (100 = growth as untreated, 0 = no growth, -100 = all killed)
Conditions: 10 µM
The panel holds about 83,000 compounds, 20% with a hit somewhere; the sample as a whole holds those more often.
Unit % implied. Number only.

Reference set (4 entries):
# Molecule, Units symbol, growth
rows = [
    ("CC1(C)N=C(N)N=C(N)N1c1ccc(CNC(=O)Nc2ccc(S(=O)(=O)F)c(Cl)c2)c(Cl)c1", "%", 22.1),
    ("COc1cc(/C=C\\c2cc(OC)c(OC)c(OC)c2)cc(N/C=C\\C(=O)c2ccc(OC(F)(F)F)cc2)c1OC", "%", 34.6),
    ("O=C(CCl)NCNC(=O)CCl", "%", 90.4),
    ("CC[C@@]1(C2O[C@@H](C3O[C@@](O)(CC)[C@H](C)C[C@@H]3C)C[C@@H]2C)CC[C@H]([C@]2(C)CCC3(C[C@H](O)[C@@H](C)[C@@H]([C@H](C)[C@@H](OC)[C@H](C)C(=O)O)O3)O2)O1 (stereo not given in full)", "%", 30.8),
]

Item c1ccc(CCN2CCCCC2Cc2ccccc2)cc1 (stereo not given) with MOLT-4 leukemia - growth?
92.7

* * *

Test system: KM12 colon
Assay: NCI-60 one-dose screen, 48 h
Details: 10 µM unless noted
The panel holds about 83,000 compounds, 20% with a hit somewhere; the sample as a whole holds those more often. Activity calls are given as the source filed them. Rule for the calls: active = growth percent below 10; inactive = the rest.
// classify into TRUE = active, FALSE = inactive

# Molecule, Classification
measured = [
    ("O=C(Nc1ccc(S(=O)(=O)F)cc1)Oc1ccccc1", "FALSE"),
]

Outcome logged for O=CN1N=C(c2ccccc2)CC1c1sc(N(CCCl)CCCl)nc1Cl (centres undefined) in this assay:
FALSE

Outcome logged for COc1cc(/C=C\c2cc(OC)c(OC)c(OC)c2)cc(N/C=C\C(=O)c2ccc(OC(F)(F)F)cc2)c1OC in this assay:
FALSE

Outcome logged for O=C1NC(=O)C(=Cc2cn(Cc3ccccc3)c3ccccc23)C(=O)N1 in this assay:
FALSE

Outcome logged for COc1cc(N(CCCl)CCCl)ccc1C=Nc1ccccc1C(=O)O in this assay:
FALSE

Outcome logged for CN1C(=O)NC(=O)C(N=Nc2ccc(Cl)cc2)C1=O (centres undefined) in this assay:
FALSE

* * *

System: HL-60(TB) leukemia
Experiment: NCI-60 one-dose screen, 48 h
Details: 10 µM unless noted
About 83,000 compounds went through this panel and 20% of them were active in at least one assay; those are over-represented in the sample as a whole. Activity calls are given as the source filed them. Rule for the calls: active = growth percent below 10; inactive = the rest.
// classify into active, inactive

# Compound, Classification
measured = [
    ("CCN(CC)P(=O)(N(CC)CC)N(CCCSC/C=C(\\C)CC/C=C(\\C)CCC=C(C)C)CCCN1CCN(C)CC1", "inactive"),
]

Outcome logged for CC(=O)OC[C@H]1OC(Sc2sc(C(=O)c3ccc(Br)cc3)c(N)c2-c2nc3ccccc3s2)[C@H](OC(C)=O)[C@@H](OC(C)=O)[C@H]1OC(C)=O (stereo not given in full) in this assay:
inactive

Outcome logged for CN(Cc1ccccc1)Cc1ccccc1 in this assay:
inactive

* * *

Measured growth values are reported for all entries that follow.
Tested on: CAKI-1 renal
Assay: NCI-60 one-dose screen, 48 h (100 = growth as untreated, 0 = no growth, -100 = all killed)
Settings: 10 µM unless noted
About 83,000 compounds went through this panel and 20% of them were active in at least one assay; those are over-represented in the sample as a whole.
Unit % implied. Number only.

Reference set (10 entries):
# Compound, Measurement name, Data value
rows = [
    ("O=[N+]([O-])c1ccc(/C=C/C=C/c2ccc(S(=O)(=O)F)cc2)c(Cl)c1", "growth", 98.3),
    ("N#Cc1ncc(/N=C/c2ccc(N(CCCl)CCCl)cc2)s1", "growth", 7.36),
    ("COP(=S)(OC)Oc1ccc(SC)c(C)c1", "growth", 92.6),
    ("Nc1nc(N)c(-c2ccc(Cl)c(Cl)c2)c(/C=C/c2ccc(S(=O)(=O)F)cc2)n1", "growth", 84.4),
    ("COC1=CC(=O)OC(CCc2ccc3c(c2)OCO3)C1 (configuration not stated)", "growth", 120),
    ("CCC[CH2][Sn]([CH2]CCC)([CH2]CCC)[O]C(=O)CC", "growth", -95.2),
    ("O=c1cc[nH]c(=O)o1", "growth", 102),
    ("CC1([N+](=O)[O-])COP(=O)(Nc2ccc(F)cc2)OC1 (configuration not stated)", "growth", 107),
    ("O=[N+]([O-])c1ccc2cnn(CSP(=S)(c3ccccc3)c3ccccc3)c2c1", "growth", 81.5),
    ("Oc1ccc2c3c1O[C@H]1c4[nH]c5ccccc5c4C[C@@]4(O)C(C2)N(CC2CC2)CC[C@]314", "growth", 92.3),
]

Turning to the following compound.
// returns reported growth for input C=CC(=O)NC(O)C(Cl)(Cl)Cl (configuration not stated)
93.5
